Origin of measurements: patent US20250257034A1

# Remaining Percentage (%) values compiled below
Method: Mouse liver microsomes stability
Type: in vitro ADME
Measurement parameters: mouse liver microsomes, With Cofactors, 30 min
Response body: numeric value in %, unit text excluded.

# count of solved cases: 4
# Compound, Unit abbrev, Reported
rows = [
    ("COc1ccc2[nH]cc(CCN3CC[C@@H](OC)C3)c2c1 [(R) I-66]", "%", 72.95),
    ("CN(C)CCc1c[nH]c2ccc(OCCOC(F)F)cc12 [Compound I-128]", "%", 37.09),
    ("O=C(O)Cc1ccccc1Nc1c(Cl)cccc1Cl [Diclofenac]", "%", 45.55),
    ("CN(CCOC(F)F)CCc1c[nH]c2ccccc12 [Compound I-130]", "%", 7.52),
]

Kindly indicate its recorded Remaining Percentage (%). Item: COc1ccc2[nH]cc(CCN(C)C)c2c1 [Compound 5-MeO-DMT]
61.84

Kindly indicate its recorded Remaining Percentage (%). Item: COc1ccc2[nH]cc(CCN3CC[C@H](OC(F)F)C3)c2c1 [(S) I-67]
34.21

Kindly indicate its recorded Remaining Percentage (%). Item: COc1ccc2[nH]cc(CCN(C)CCOC(F)F)c2c1 [Compound I-71]
6.96

Kindly indicate its recorded Remaining Percentage (%). Item: COc1ccc2[nH]cc(CCN3CC[C@@H](OC(F)F)C3)c2c1 [(R) I-67]
43.11

---

Method: Human liver microsomes stability
Assay type: in vitro ADME
Measurement parameters: human liver microsomes, 2 μM compound, 0.5 mg/mL
Label key: 1.0 means half-life at 2 μM under 20 min; 0.0 means half-life at 2 μM of 20 min or more.

# Molecule, Label class
records = [
    ("COc1ccc2[nH]cc(CCN(C)CCOC(F)F)c2c1", 1.0),
    ("COc1ccc2[nH]cc(CCN3CC[C@@H](OC(F)F)C3)c2c1 [(R) I-67]", 0.0),
    ("COc1ccc2[nH]cc(CCN3CC[C@@H](OC)C3)c2c1 [(R) I-66]", 0.0),
    ("CN(C)CCc1c[nH]c2ccc(OCCOC(F)F)cc12", 0.0),
    ("COc1ccc2[nH]cc(CCN3CC[C@H](OC(F)F)C3)c2c1 [(S) I-67]", 0.0),
]

Now take the following molecule into account.
Strictly below 20 min in half-life at 2 μM? CN(CCOC(F)F)CCc1c[nH]c2ccccc12
1.0

---

Method: Pharmacokinetic studies in rat (i.v.)
Assay type: in vivo
Measurement parameters: male, Sprague-Dawley, rat, plasma, iv, rat plasma, i.v., third individual rat (R03/R06); dose 1.37 mg/kg (I-71, I-128), 1.33 mg/kg ((S) I-67); read-out: AUC0-tlast
# AUC(0-t) values compiled below
Response body: numeric value in ng·h/mL, unit text excluded.

# count of solved cases: 2
# Molecule, Unit abbrev, AUC(0-t)
measured = [
    ("COc1ccc2[nH]cc(CCN(C)CCOC(F)F)c2c1 [Compound I-71]", "ng·h/mL", 297),
    ("CN(C)CCc1c[nH]c2ccc(OCCOC(F)F)cc12 [Compound I-128]", "ng·h/mL", 92.9),
]

Next, consider the following molecule.
Kindly indicate its recorded AUC(0-t). Item: COc1ccc2[nH]cc(CCN3CC[C@H](OC(F)F)C3)c2c1 [(S) I-67]
472

---

Method: Human liver microsomes stability
Assay type: in vitro ADME
Measurement parameters: human liver microsomes, Without Cofactors, 60 min
The label depends only on Remaining Percentage (%): 1 if it is at least 90%, 0 if it is smaller.

Illustrative cases are given below, each with its answer.
# Compound, Label class
rows = [
    ("COc1ccc2[nH]cc(CCN(C)C)c2c1", 0),
    ("COc1ccc2[nH]cc(CCN3CC[C@@H](OC)C3)c2c1 [(R) I-66]", 1),
    ("O=C(O)Cc1ccccc1Nc1c(Cl)cccc1Cl", 1),
    ("COc1ccc2[nH]cc(CCN3CC[C@H](OC(F)F)C3)c2c1 [(S) I-67]", 1),
    ("COc1ccc2[nH]cc(CCN(C)CCOC(F)F)c2c1", 1),
    ("CN(C)CCc1c[nH]c2ccc(OCCOC(F)F)cc12", 0),
    ("CN(CCOC(F)F)CCc1c[nH]c2ccccc12", 1),
]

Now take the following compound into account.
# check: Remaining Percentage (%) of COc1ccc2[nH]cc(CCN3CC[C@@H](OC(F)F)C3)c2c1 [(R) I-67] is greater than or equal to 90%
0

---

Method: Mouse liver microsomes stability
Type: in vitro ADME
Measurement parameters: mouse liver microsomes, Without Cofactors, 60 min
# Remaining Percentage (%) values compiled below
Response body: numeric value in %, unit text excluded.

# count of solved cases: 7
# Compound, Remaining Percentage (%)
measured = [
    ("COc1ccc2[nH]cc(CCN(C)C)c2c1 [Compound 5-MeO-DMT]", 95.24),
    ("COc1ccc2[nH]cc(CCN3CC[C@@H](OC)C3)c2c1 [(R) I-66]", 100.00),
    ("O=C(O)Cc1ccccc1Nc1c(Cl)cccc1Cl [Diclofenac]", 96.59),
    ("COc1ccc2[nH]cc(CCN3CC[C@H](OC(F)F)C3)c2c1 [(S) I-67]", 100.35),
    ("COc1ccc2[nH]cc(CCN3CC[C@@H](OC(F)F)C3)c2c1 [(R) I-67]", 109.43),
    ("CN(C)CCc1c[nH]c2ccc(OCCOC(F)F)cc12 [Compound I-128]", 87.90),
    ("COc1ccc2[nH]cc(CCN(C)CCOC(F)F)c2c1 [Compound I-71]", 109.68),
]

Next, consider the following compound.
Kindly indicate its recorded Remaining Percentage (%). Item: CN(CCOC(F)F)CCc1c[nH]c2ccccc12 [Compound I-130]
104.89

---

Study target: 5-HT2B receptor (Homo sapiens, UniProt P41595)
Sequence (P41595 whole entry): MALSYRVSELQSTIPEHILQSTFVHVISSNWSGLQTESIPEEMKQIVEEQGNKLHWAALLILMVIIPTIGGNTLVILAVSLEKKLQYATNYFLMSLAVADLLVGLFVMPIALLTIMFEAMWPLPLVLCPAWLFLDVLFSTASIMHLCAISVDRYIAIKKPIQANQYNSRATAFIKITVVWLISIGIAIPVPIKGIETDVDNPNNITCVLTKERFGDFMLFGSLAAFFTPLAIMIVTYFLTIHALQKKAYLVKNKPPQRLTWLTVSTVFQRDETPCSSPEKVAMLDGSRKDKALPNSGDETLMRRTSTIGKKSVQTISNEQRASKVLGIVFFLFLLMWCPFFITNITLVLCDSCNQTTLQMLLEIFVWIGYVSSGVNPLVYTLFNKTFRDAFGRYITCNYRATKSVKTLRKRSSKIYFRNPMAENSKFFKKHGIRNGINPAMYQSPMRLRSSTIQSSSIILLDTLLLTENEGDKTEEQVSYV
Method: h-5HT2B positive allosteric modulator (PAM) assay in HEK293 cells
Type: cell-based
Design: expressed in transfected cells; host or cells: HEK293, stably transfected
pEC50: −log10 of the molar value.
# pEC50 values compiled below

# count of solved cases: 2
# Molecule, pEC50
records = [
    ("CCN(C)CCc1c[nH]c2ccc(SC)cc12", "< 5.00"),
    ("COc1ccc2[nH]cc(CCN3CC[C@H](OC(F)F)C3)c2c1 [(S) I-67]", "< 5.00"),
]

Next, consider the following molecule.
Kindly indicate its recorded pEC50. Item: [2H]C([2H])([2H])N(CCc1c[nH]c2ccc(SC)cc12)C([2H])([2H])[2H]
< 5.00

---

# pEC50 values compiled below
Study target: human 5-HT2A receptor (Homo sapiens)
Sequence (P28223 whole entry): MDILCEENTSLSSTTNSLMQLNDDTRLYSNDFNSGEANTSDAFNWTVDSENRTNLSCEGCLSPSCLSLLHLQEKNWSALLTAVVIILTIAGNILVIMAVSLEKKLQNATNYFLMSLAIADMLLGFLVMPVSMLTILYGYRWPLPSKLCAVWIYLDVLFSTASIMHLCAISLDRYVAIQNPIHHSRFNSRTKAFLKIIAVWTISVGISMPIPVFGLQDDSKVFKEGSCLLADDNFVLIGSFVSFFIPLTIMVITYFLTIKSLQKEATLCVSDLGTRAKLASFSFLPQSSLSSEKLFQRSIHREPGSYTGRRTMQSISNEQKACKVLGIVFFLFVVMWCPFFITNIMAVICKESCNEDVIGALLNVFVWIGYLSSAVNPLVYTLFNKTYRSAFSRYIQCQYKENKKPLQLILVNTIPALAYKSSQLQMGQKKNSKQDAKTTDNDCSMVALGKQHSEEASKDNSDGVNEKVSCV
Method: Human 5-HT2A functional FLIPR assay (agonist mode)
Format: cell-based
Set-up: expressed in transfected cells; host or cells: HTR2A&Gα15-HEK293 (tetracycline induction)
Measurement parameters: FLIPR calcium, agonist mode, HTR2A&Gα15-HEK293 cells (Table 39); read-out: h5-HT2A, EC50
Procedure: The potential excitatory effects of compounds targeting on human 5-hydroxytryptamine receptor 2A (5-HT2A) under agonist mode was assessed. […] 7. The cell density was counted using cell counter. […] 3. The plate was read for 160 sec with 1 sec interval and the data of agonist mode was obtained. 1. The normalized fluorescence reading (RFU) was calculated as shown below, wherein F max and F min stand for maximum and minimum of calcium signal during defined time window: […]
# pEC50: negative log10 of molar concentration; output just the value

# Molecule, Experimental readout, Reported
data = [
    ("CN(C)CCc1c[nH]c2ccccc12 [DMT]", "pEC50", 6.79),
]

Kindly indicate its recorded pEC50. Item: COc1ccc2[nH]cc(CCN(C)CCOC(F)F)c2c1 [Compound I-71]
6.59

---

Method: Pharmacokinetic studies in rat (i.v.)
Assay type: in vivo
Measurement parameters: male, Sprague-Dawley, rat, plasma, iv, 1.2 mg/kg, I-19 1.2 mg/kg i.v., rat plasma, 1 h, individual rats R07-R09; read-out: Plasma concentration
Experimental: Animals: Male Sprague-Dawley rats (˜225-350 g) from Charles River Labs were acclimatized for a minimum of 5 days prior to start of study procedures. Body weights were recorded on the day of dosing. Any abnormalities were documented including presence/absence of wet dog shakes/back muscle contractions (WDS/BMC). Dosing: Formulations were administered intravenously (i.v.) via the tail vein using a 25 G needle connected to a 1 cc syringe. […]
Experimental readout: concentration at 1 h (ng/mL)
Response body: numeric value in ng/mL, unit text excluded.

Kindly indicate its recorded concentration at 1 h. Item: CSc1ccc2[nH]cc(CCN(C)C(C)C)c2c1
30.4

---

Method: Pharmacokinetic studies in rat (i.v.)
Type: in vivo
Measurement parameters: male, Sprague-Dawley, rat, plasma, iv, 1.14 mg/kg, I-13 1.14 mg/kg i.v., rat plasma, 1 h, individual rats R04-R06; read-out: Plasma concentration
Experimental readout: concentration at 1 h (ng/mL)
Response body: numeric value in ng/mL, unit text excluded.

Kindly indicate its recorded concentration at 1 h. Item: CCN(C)CCc1c[nH]c2ccc(SC)cc12
52.2
